Observed IC50, system hSTING-CTD (Homo sapiens (Human), UniProt Q86WV6).

[[record]]
compound = "N#Cc1ccc2c(=O)c3ccccc3n(CC(=O)O)c2c1Cl [Compound 107]"
recorded_metric = "IC50"
recorded_result = "< 100 µM"


Form: item Cc1ccc2c(=O)c3ccc(Cl)c(Br)c3n(CC(=O)O)c2c1 [Compound 112] ; test system hSTING-CTD (Homo sapiens (Human), UniProt Q86WV6); IC50: < 100 µM

Form: item O=C(O)Cn1c2ccccc2c(=O)c2ccc(F)c(Cl)c21 [Compound 83] ; test system hSTING-CTD (Homo sapiens (Human), UniProt Q86WV6); IC50: > 1000 µM

====

# target.or.test.system: hSTING-WT (Homo sapiens (Human), UniProt Q86WV6, H232R)
# Sequence (Q86WV6 140-379 H232R): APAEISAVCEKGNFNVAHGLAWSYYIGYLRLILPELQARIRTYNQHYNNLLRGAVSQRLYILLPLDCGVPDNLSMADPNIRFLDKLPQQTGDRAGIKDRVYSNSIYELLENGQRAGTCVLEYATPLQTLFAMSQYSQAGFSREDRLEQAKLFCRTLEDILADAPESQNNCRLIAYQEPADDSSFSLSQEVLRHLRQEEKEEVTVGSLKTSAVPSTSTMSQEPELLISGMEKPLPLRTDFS
# experimental.protocol: Radiometric filtration binding competition assay, hSTING-WT
pIC50: −log10 of the molar value.
recorded.metric: pIC50

Illustrative cases are given below, each with its answer.
[[record]]
molecule_smiles = "COc1c(Cl)ccc2c(=O)c3ccc(-c4cccc(O)c4)cc3n(CC(=O)O)c12"
target_or_test_system = "hSTING-WT (Homo sapiens (Human), UniProt Q86WV6, H232R)"
recorded_metric = "pIC50"
recorded_result = "> 4.70"

[[record]]
molecule_smiles = "CC(=O)COc1c(Cl)ccc2c(=O)c3ccccc3n(CC(=O)O)c12"
target_or_test_system = "hSTING-WT (Homo sapiens (Human), UniProt Q86WV6, H232R)"
recorded_metric = "pIC50"
recorded_result = "< 3.52"

[[record]]
molecule_smiles = "Cc1ccc2c(=O)c3ccc(Cl)c(OCC4CC4)c3n(CC(=O)O)c2c1"
target_or_test_system = "hSTING-WT (Homo sapiens (Human), UniProt Q86WV6, H232R)"
recorded_metric = "pIC50"
recorded_result = "3.52 to 4.00"


Now, please, on to the next molecule.
Form: item COc1c(Cl)ccc2c(=O)c3ccc(NC4CCCC4)cc3n(CC(=O)O)c12 ; test system hSTING-WT (Homo sapiens (Human), UniProt Q86WV6, H232R); pIC50: > 4.70

====

# target.or.test.system: STING protein (Homo sapiens (Human), UniProt Q86WV6, H232R)
# Sequence (Q86WV6 whole entry H232R): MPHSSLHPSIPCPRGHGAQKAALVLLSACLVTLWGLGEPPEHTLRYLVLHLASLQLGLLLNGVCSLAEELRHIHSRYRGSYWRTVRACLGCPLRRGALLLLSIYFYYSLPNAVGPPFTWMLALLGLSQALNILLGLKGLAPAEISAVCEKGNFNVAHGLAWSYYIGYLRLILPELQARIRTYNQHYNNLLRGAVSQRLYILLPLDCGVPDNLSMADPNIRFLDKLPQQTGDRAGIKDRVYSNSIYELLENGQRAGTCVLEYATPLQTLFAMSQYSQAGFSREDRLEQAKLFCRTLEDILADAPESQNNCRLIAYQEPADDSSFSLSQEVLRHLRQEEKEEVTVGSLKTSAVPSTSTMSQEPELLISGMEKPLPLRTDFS
# experimental.protocol: Cell based reporter assay of IRF activation (IRF-luciferase), THP1-dual-KI R232
# details: read-out: THP1-dual-KI R232_IRF(Luciferase)_Activity Maximum measured (%)
# Emax listing for each entry below

Illustrative cases are given below, each with its answer.
[[record]]
compound = "O=C(O)Cn1c2cc(-c3ccc(O)cc3)ccc2c(=O)c2ccc(Cl)c(Cl)c21 [Compound 223]"
recorded_result = "< 5%"

[[record]]
compound = "COc1cccc2c(=O)c3ccc(Cl)c(OC)c3n(CC(=O)O)c12 [Compound 333]"
recorded_result = "5 to 25%"

[[record]]
compound = "CC(C)(C)CNc1ccc2c(=O)c3ccc(Cl)c(Cl)c3n(CC(=O)O)c2c1 [Compound 138]"
recorded_result = "> 50%"

[[record]]
compound = "COc1c(Cl)cc(O)c2c(=O)c3ccccc3n(CC(=O)O)c12 [Compound 314]"
recorded_result = "> 50%"


Sample CC1CCC(Nc2ccc3c(=O)c4ccc(Cl)c(Cl)c4n(CC(=O)O)c3c2)CC1 (centres unmarked) [Compound 140] ; Emax observed: 5 to 25%

Every entry's value here was drawn from patent US11414387B2.
